All figures here come from ChEMBL document CHEMBL4400545.

- system.tested: UniProtKB P31648
- method.description: Inhibition of mouse GAT-1 assessed as percentage of remaining specific binding of NO711 at 1 uM after 4 hrs by LC-ESI-MS/ms analysis relative to control
recorded.metric: Activity (%)
Only the number, expressed in %, is required.

Completed entries (count: 8):
compound="O=C(O)C1CCCN(CCO/N=C/c2sccc2-c2ccccc2)C1 (racemic)" recorded_metric=Activity endpoint_result=48
compound=O=Cc1cc2c(cc1-c1ccccc1)OCO2 recorded_metric=Activity endpoint_result=92
compound="O=C(O)C1CCCN(CCO/N=C/c2cc(F)ccc2-c2ccccc2)C1 (racemic)" recorded_metric=Activity endpoint_result=58
compound=O=Cc1ccccc1-c1ccc(F)cc1 recorded_metric=Activity endpoint_result=92
compound=O=Cc1ccccc1-c1cccc(Cl)c1 recorded_metric=Activity endpoint_result=92
compound=O=Cc1ccccc1-c1cccs1 recorded_metric=Activity endpoint_result=92
compound=O=Cc1ccccc1-c1ccco1 recorded_metric=Activity endpoint_result=80
compound=O=Cc1ccccc1-c1cccnc1 recorded_metric=Activity endpoint_result=88

## Input Hi! What's the reported Activity for O=C(O)C1CCCN(CCO/N=C/c2ccccc2)C1 (racemic) on UniProtKB P31648?
## Output 74

## Input Note, next up: Cc1onc(-c2ccc(Cl)cc2)c1/C=N/OCCN1CCCC(C(=O)O)C1 (racemic)
## Output 7

## Input Can you check O=C(O)C1CCCN(CCO/N=C/c2cccnc2-c2ccccc2F)C1 (racemic) next?
## Output 32

## Input Input `O=Cc1cc2c(cc1-c1ccc(Cl)cc1Cl)OCO2`
## Output 92

---

- system.tested: UniProt P31648
- method.description: Inhibition of mouse GAT-1 assessed as percentage of remaining specific binding of NO711 at 1 uM after 4 hrs by LC-ESI-MS/ms analysis relative to control
Strictly below 60% in Activity: t. Otherwise: f.

molecule="O=C(O)C1CCCN(CCO/N=C/c2ccnc3ccccc23)C1 (racemic)" group=f
molecule=O=Cc1c[nH]c2ncccc12 group=f
molecule="O=C(O)C1CCCN(CCO/N=C/c2ccccc2-c2c(F)cccc2F)C1 (racemic)" group=t

## Input # TODO verify Activity < 60% strictly for this molecule: O=C(O)C1CCCN(CCO/N=C/c2c3ccccc3cc3ccccc23)C1 (racemic)
## Output f

## Input And the next one, `O=Cc1ccc(OCc2ccccc2)cc1` ?
## Output f

## Input Could you do the same for `O=Cc1c2ccccc2cc2ccccc12` , please?
## Output f

## Input Also check O=CC1CC2C=CC1C2 (configuration not stated)
## Output f

## Input Would you kindly repeat that for O=C(O)C1CCCN(CCO/N=C/c2ccccc2-n2cccc2)C1 (racemic) ?
## Output t

## Input Moving on to the next molecule: `O=Cc1cc(F)ccc1-c1ccccc1Cl`
## Output f

## Input Now try `O=Cc1cccnc1` .
## Output f

## Input Proceed to O=C(O)C1CCCN(CCO/N=C/c2csc3ccccc23)C1 (racemic)
## Output t

## Input Next record, please: O=C(O)C1CCCN(CCO/N=C/c2sccc2-c2ccc(F)cc2Cl)C1 (racemic)
## Output t

---

- system.tested: Sodium- and chloride-dependent GABA transporter 1 (Mus musculus) (UniProt P31648)
- method.description: Inhibition of mouse GAT-1 assessed as percentage of remaining specific binding of NO711 at 1 uM after 4 hrs by LC-ESI-MS/ms analysis relative to control
Reported values of Activity for individual entries
Write it as a number; the unit % goes unstated.

Some molecules with recorded Activity:
molecule="O=C(O)C1CCCN(CCO/N=C/c2ccc(O)c3ccccc23)C1 (racemic)" system_tested="Sodium- and chloride-dependent GABA transporter 1 (Mus musculus) (UniProt P31648)" unit_string=% endpoint_result=61
molecule="O=C(O)C1CCCN(CCO/N=C/c2ccccc2-c2cccnc2)C1 (racemic)" system_tested="Sodium- and chloride-dependent GABA transporter 1 (Mus musculus) (UniProt P31648)" unit_string=% endpoint_result=37
molecule=O=Cc1ccc(-c2ccccc2OC(F)(F)F)o1 system_tested="Sodium- and chloride-dependent GABA transporter 1 (Mus musculus) (UniProt P31648)" unit_string=% endpoint_result=82
molecule=O=Cc1ccccc1-c1c(F)cccc1F system_tested="Sodium- and chloride-dependent GABA transporter 1 (Mus musculus) (UniProt P31648)" unit_string=% endpoint_result=88
molecule=Cc1ccsc1-c1sc(C=O)cc1C system_tested="Sodium- and chloride-dependent GABA transporter 1 (Mus musculus) (UniProt P31648)" unit_string=% endpoint_result=97

## Input Could you tell me which Activity is on file for Cc1ccsc1-c1sc(/C=N/OCCN2CCCC(C(=O)O)C2)cc1C (racemic) ?
## Output 33

## Input // query: O=C(O)C1CCCN(CCO/N=C/c2ccccc2-c2ccc(Cl)cc2Cl)C1 (racemic)
## Output 5

## Input What do you get for O=C(O)C1CCCN(CCO/N=C/c2ccc(-c3ccccc3)cc2)C1 (racemic) ?
## Output 80

## Input Repeat for the following molecule: `O=Cc1ccccc1-c1cccc(F)c1F`
## Output 88

## Input Now consider O=C(O)C1CCCN(CCO/N=C/c2ccccc2-c2ccccc2Cl)C1 (racemic) and answer again.
## Output 26

---

- system.tested: Sodium- and chloride-dependent GABA transporter 1 (Mus musculus) (UniProt P31648)
- method.description: Inhibition of mouse GAT-1 assessed as percentage of remaining specific binding of NO711 at 100 nM after 4 hrs by LC-ESI-MS/ms analysis relative to control
recorded.metric: Activity (%)
A number alone suffices; assume %.

Worked cases, answers included:
compound="O=C(O)C1CCCN(CCO/N=C/C(c2ccccc2)c2ccccc2)C1 (racemic)" recorded_metric=Activity unit_string=% endpoint_result=20
compound="O=C(O)C1CCCN(CCO/N=C/c2ccccc2-c2ccc(F)cc2)C1 (racemic)" recorded_metric=Activity unit_string=% endpoint_result=38
compound="O=C(O)C1CCCN(CCO/N=C/c2ccccc2-c2ccc(Cl)cc2)C1 (racemic)" recorded_metric=Activity unit_string=% endpoint_result=38
compound="O=C(O)C1CCCN(CCO/N=C/c2cc(F)ccc2-c2ccccc2)C1 (racemic)" recorded_metric=Activity unit_string=% endpoint_result=16
compound="Cc1onc(-c2ccc(Cl)cc2)c1/C=N/OCCN1CCCC(C(=O)O)C1 (racemic)" recorded_metric=Activity unit_string=% endpoint_result=48

API: the following record is the query input.
## Input Any idea what its Activity is? The compound is O=C(O)C1CCCN(CCO/N=C/c2ccccc2-c2cccs2)C1 (racemic)
## Output 48

---

- system.tested: Sodium- and chloride-dependent GABA transporter 1 (Mus musculus)
- method.description: Inhibition of mouse GAT-1 assessed as percentage of remaining specific binding of NO711 at 1 uM after 4 hrs by LC-ESI-MS/ms analysis relative to control
Form field: Activity (one value per entry).
Record the value in %, omitting the unit from your answer.

Previously resolved entries follow.
molecule="O=C(O)C1CCCN(CCO/N=C/c2ccc(-c3ccc(C(F)(F)F)cc3Cl)o2)C1 (racemic)" recorded_metric=Activity endpoint_result=83
molecule="O=C(O)C1CCCN(CCO/N=C/c2cc3ccccc3c3ccccc23)C1 (racemic)" recorded_metric=Activity endpoint_result=62

## Input Consider the molecule shown here: O=C(O)C1CCCN(CCO/N=C/c2ccc(Oc3ccccc3)cc2)C1 (racemic) What is its recorded Activity?
## Output 29

## Input Cool, now `O=Cc1cccc(Oc2ccccc2)c1`
## Output 90

## Input And the next one, `O=Cc1c[nH]nc1-c1ccc(F)cc1` ?
## Output 92

## Input Try the molecule `O=Cc1cccnc1-c1ccccc1`
## Output 87

---

- system.tested: Sodium- and chloride-dependent GABA transporter 1 (Mus musculus) (UniProt P31648)
- method.description: Inhibition of mouse GAT-1 assessed as percentage of remaining specific binding of NO711 at 100 nM after 4 hrs by LC-ESI-MS/ms analysis relative to control
recorded.metric: Activity (%)
Numbers only; they are read as %.

A selection of reference data follows.
molecule="O=C(O)C1CCCN(CCO/N=C/c2ccccc2-c2ccccc2)C1 (racemic)" system_tested="Sodium- and chloride-dependent GABA transporter 1 (Mus musculus) (UniProt P31648)" recorded_metric=Activity endpoint_result=20
molecule="O=C(O)C1CCCN(CCO/N=C/c2ccccc2-c2ccc(Cl)cc2F)C1 (racemic)" system_tested="Sodium- and chloride-dependent GABA transporter 1 (Mus musculus) (UniProt P31648)" recorded_metric=Activity endpoint_result=17
molecule="O=C(O)C1CCCN(CCO/N=C/c2ccccc2-c2cccc(Cl)c2)C1 (racemic)" system_tested="Sodium- and chloride-dependent GABA transporter 1 (Mus musculus) (UniProt P31648)" recorded_metric=Activity endpoint_result=38
molecule="O=C(O)C1CCCN(CCO/N=C/c2ccccc2-c2cccc(F)c2)C1 (racemic)" system_tested="Sodium- and chloride-dependent GABA transporter 1 (Mus musculus) (UniProt P31648)" recorded_metric=Activity endpoint_result=38
molecule="O=C(O)C1CCCN(CCO/N=C/c2ccccc2-c2cc(F)ccc2F)C1 (racemic)" system_tested="Sodium- and chloride-dependent GABA transporter 1 (Mus musculus) (UniProt P31648)" recorded_metric=Activity endpoint_result=17

## Input Need Activity of CC(/C=N/OCCN1CCCC(C(=O)O)C1)(CCC#N)c1ccccc1 (racemic) , thanks.
## Output 48

## Input Subsequent entry: O=C(O)C1CCCN(CCO/N=C/c2c[nH]nc2-c2ccc(F)cc2)C1 (racemic)
## Output 48
